What growth was measured for each of the following?
- Tested on: BT-549 breast
- Assay method text: NCI-60 one-dose screen, 48 h (100 = growth as untreated, 0 = no growth, -100 = all killed)
- Conditions used: 10 µM unless noted
About 83,000 compounds went through this panel and 20% of them were active in at least one assay; those are over-represented in the sample as a whole.
Note: unit % is implicit; provide only the numeric part.

Prompt line: Endpoint output: growth of COc1ccc(CCl)c(C)c1OC . Value?
Response line: 105

Prompt line: Endpoint output: growth of CC(=O)Nc1cscc1NC(C)=O . Value?
Response line: 90.3

Prompt line: Endpoint output: growth of CC(C)(C)OC(=O)CC1(O)CCCCC1 . Value?
Response line: 110

Prompt line: Endpoint output: growth of CN1C2C=CC(=O)C1C1C(=O)N(c3ccccc3)C(=O)C12 (centres undefined) . Value?
Response line: 52.9

Prompt line: Endpoint output: growth of COc1ccc(/C=N/Nc2nc3ccccc3s2)cc1 . Value?
Response line: 97.6

Prompt line: Endpoint output: growth of O=COCCCc1ccccc1 . Value?
Response line: 104

Prompt line: Endpoint output: growth of CCCCNC(=O)c1ccccc1C . Value?
Response line: 94.1

Prompt line: Endpoint output: growth of Cc1c(O)nc(N)[nH]c1=O . Value?
Response line: 116

Prompt line: Endpoint output: growth of O=C(c1ccccc1)C1(Br)CCCCC1 . Value?
Response line: 105

Prompt line: Endpoint output: growth of NCCSSC/C=C\CSSCCN . Value?
Response line: 100

Prompt line: Endpoint output: growth of CCOC(=O)CN1CCC(C(=O)OCC)CC1 . Value?
Response line: 105

Prompt line: Endpoint output: growth of Cn1c(-c2ccccc2)cc(=O)cc1-c1ccccc1 . Value?
Response line: 86.8

Prompt line: Endpoint output: growth of COC(=O)c1nc(N)nc(C(=O)OC)c1C(=O)c1ccc(F)cc1 . Value?
Response line: 120

Prompt line: Endpoint output: growth of O=C(/C=C/C=C/c1ccc2c(c1)OCO2)N1CCCCC1 . Value?
Response line: 108

Prompt line: Endpoint output: growth of COc1ccc2oc3c(ccc[n+]3C)c(=O)c2c1 . Value?
Response line: 103

Prompt line: Endpoint output: growth of C=CCN1C(=O)c2ccccc2C1=O . Value?
Response line: 96.8

Prompt line: Endpoint output: growth of CCN(CC)C(CC(=O)c1ccccc1)C(=O)c1ccccc1 (centres undefined) . Value?
Response line: 102

Prompt line: Endpoint output: growth of CCCCCc1cc[n+](CC(=O)c2ccccc2)cc1 . Value?
Response line: 95.9

Prompt line: Endpoint output: growth of O=C(c1ccc(Cl)cc1)C1C(c2ccccc2)C1[N+](=O)[O-] (centres undefined) . Value?
Response line: 99.3

Prompt line: Endpoint output: growth of Cc1cnc(N)s1 . Value?
Response line: 100

Prompt line: Endpoint output: growth of Cc1nc(Nc2ccc(Cl)cc2)c2cnn(-c3ccccc3)c2n1 . Value?
Response line: 102

Prompt line: Endpoint output: growth of COC(=O)c1ccccc1Cl . Value?
Response line: 98.4

Prompt line: Endpoint output: growth of COc1ccc2nccc(Cl)c2c1 . Value?
Response line: 98.4

Prompt line: Endpoint output: growth of O=C(O)c1cc(=O)[nH]c(=O)[nH]1 . Value?
Response line: 97.2

Prompt line: Endpoint output: growth of CCC(C)(O)CCC(C)(O)CC (centres undefined) . Value?
Response line: 107

Prompt line: Endpoint output: growth of O=c1[nH]c(=O)c2[nH]c(=O)[nH]c2[nH]1 . Value?
Response line: 90.8

Prompt line: Endpoint output: growth of CCN(CC)C(=S)SCCO . Value?
Response line: 144

Prompt line: Endpoint output: growth of CC1=CC(=O)c2cccc(NC3=NCCO3)c21 . Value?
Response line: 101

Prompt line: Endpoint output: growth of CS(=O)(=O)c1nsc(N)n1 . Value?
Response line: 107

---

- System: A498 renal
- Assay method text: NCI-60 one-dose screen, 48 h (100 = growth as untreated, 0 = no growth, -100 = all killed)
- Conditions used: 10 µM unless noted
The panel holds about 83,000 compounds, 20% with a hit somewhere; the sample as a whole holds those more often.
Parameter: growth (%)
Note: unit % is implicit; provide only the numeric part.

Prompt line: Endpoint output: growth of CC(O)CCNC(c1ccccc1)C(O)c1ccccc1 (centres undefined) . Value?
Response line: 103

Prompt line: Endpoint output: growth of CN1C2C=CC(=O)C1C1C(=O)N(c3ccccc3)C(=O)C12 (centres undefined) . Value?
Response line: 106

Prompt line: Endpoint output: growth of CC1CCC(=O)N1c1ccc(N)cc1 (centres undefined) . Value?
Response line: 98.4

Prompt line: Endpoint output: growth of Nc1c(Cl)cc2c(c1Br)C(=O)c1ccccc1C2=O . Value?
Response line: 110

Prompt line: Endpoint output: growth of Nc1nc(-c2ccccn2)cc(-c2cc(-c3ccccn3)nc(N)n2)n1 . Value?
Response line: 156

Prompt line: Endpoint output: growth of Clc1ccc2c(c1)N(C1CCCN(Cc3ccccc3)C1)c1ccccc1S2 (centres undefined) . Value?
Response line: 70.6

Prompt line: Endpoint output: growth of Nc1ccc(Cl)c(S(=O)(=O)O)c1 . Value?
Response line: 84

Prompt line: Endpoint output: growth of COc1ccc(CCN=Cc2ccc(Cl)cc2)cc1OC . Value?
Response line: 95.3

Prompt line: Endpoint output: growth of CCNC1=CC(=O)c2ncccc2C1=O . Value?
Response line: 80.8

---

What growth was measured for each of the following?
- Tested on: OVCAR-8 ovarian
- Assay method text: NCI-60 one-dose screen, 48 h (100 = growth as untreated, 0 = no growth, -100 = all killed)
- Conditions used: 10 µM unless noted
The panel holds about 83,000 compounds, 20% with a hit somewhere; the sample as a whole holds those more often. Active and inactive are the calls of the source. The calls were made as follows: active = growth percent below 10; inactive = the rest.

Prompt line: Endpoint output: growth of OCCS . Value?
Response line: 103% (inactive)

Prompt line: Endpoint output: growth of CC(=O)Oc1ccc(C(c2ccc(OC(C)=O)cc2)c2ccccn2)cc1 . Value?
Response line: 48.7% (inactive)

Prompt line: Endpoint output: growth of N#CC(=S)Nc1ccc(Cl)c(Cl)c1 . Value?
Response line: 10.1% (inactive)

Prompt line: Endpoint output: growth of O=C1c2cccnc2-c2ncccc21 . Value?
Response line: 106% [100 µM] (inactive)

Prompt line: Endpoint output: growth of Nc1ccc2ccc(NS(=O)(=O)N3CCCCC3)cc2c1 . Value?
Response line: 34.2% (inactive)

Prompt line: Endpoint output: growth of CCOC(=O)c1ccc(C(=N)N)cc1 . Value?
Response line: 105% (inactive)

Prompt line: Endpoint output: growth of Nc1nc(-c2ccccn2)cc(-c2cc(-c3ccccn3)nc(N)n2)n1 . Value?
Response line: 106% (inactive)

Prompt line: Endpoint output: growth of OCc1cccc(F)c1 . Value?
Response line: 85.3% (inactive)

---

What growth was measured for each of the following?
- Test system: PC-3 prostate
- Assay method text: NCI-60 one-dose screen, 48 h (100 = growth as untreated, 0 = no growth, -100 = all killed)
- Conditions used: 10 µM unless noted
About 83,000 compounds went through this panel and 20% of them were active in at least one assay; those are over-represented in the sample as a whole.
Note: unit % is implicit; provide only the numeric part.

Prompt line: Endpoint output: growth of CCOC(=O)c1ccncc1 . Value?
Response line: 97.5

Prompt line: Endpoint output: growth of CCCC(=O)OCC(COC(=O)CCC)OC(=O)CCC . Value?
Response line: 85.4

Prompt line: Endpoint output: growth of O=C(c1ccccc1)C1(Br)CCCCC1 . Value?
Response line: 99.2

Prompt line: Endpoint output: growth of O=C1c2ccccc2C(c2ccccc2)C1c1ccccc1 (configuration not stated) . Value?
Response line: 80.7

Prompt line: Endpoint output: growth of CC1=CC(=O)c2cccc(NC3=NCCO3)c21 . Value?
Response line: 89.1

Prompt line: Endpoint output: growth of O=C1C=CC(=O)N1Cc1ccco1 . Value?
Response line: 81.6

Prompt line: Endpoint output: growth of CC(NC(=O)CCl)c1ccccc1 (configuration not stated) . Value?
Response line: 95.2

Prompt line: Endpoint output: growth of CCC(C)(O)CCC(C)(O)CC (configuration not stated) . Value?
Response line: 98.6

Prompt line: Endpoint output: growth of CCc1ccc(OC(=O)CCl)cc1 . Value?
Response line: 98.3

Prompt line: Endpoint output: growth of N=c1sc2ccccc2n1CC(=O)O . Value?
Response line: 92.7

Prompt line: Endpoint output: growth of O=C1c2ccccc2CN1c1ccccc1 . Value?
Response line: 116

Prompt line: Endpoint output: growth of OCCCc1ccccc1 . Value?
Response line: 100

---

- System: T-47D breast
- Assay method text: NCI-60 one-dose screen, 48 h (100 = growth as untreated, 0 = no growth, -100 = all killed)
- Conditions used: 10 µM unless noted
About 83,000 compounds went through this panel and 20% of them were active in at least one assay; those are over-represented in the sample as a whole. Active and inactive are the calls of the source. How the source made its calls: active means growth percent below 10; inactive means the rest.
What growth was measured for each of the following?

Prompt line: Endpoint output: growth of COc1ccc(CCNC(=S)NN)cc1OC . Value?
Response line: 98.8% (inactive)

Prompt line: Endpoint output: growth of O=C1Cc2ccccc2C(=O)N1 . Value?
Response line: 71.1% (inactive)

Prompt line: Endpoint output: growth of NCCCCCC(=O)O . Value?
Response line: 101% (inactive) [middle of 4 runs]

Prompt line: Endpoint output: growth of NNC(=O)Nc1ccccc1 . Value?
Response line: 109% (inactive)

Prompt line: Endpoint output: growth of CC(C)(C)OC(=O)CC1(O)CCCCC1 . Value?
Response line: 99.8% (inactive)

Prompt line: Endpoint output: growth of C/C(CC(C)C)=N/NC(N)=S . Value?
Response line: 39% (inactive)

Prompt line: Endpoint output: growth of CC(=O)c1cc2ccccc2o1 . Value?
Response line: 100% (inactive)

Prompt line: Endpoint output: growth of Nc1ccc(Cl)c(S(=O)(=O)O)c1 . Value?
Response line: 92.4% (inactive)

Prompt line: Endpoint output: growth of Cc1ccc(NC(=S)N/C=C(\c2ccccc2)S(=O)Cc2ccccc2)c(C)c1 (stereo not drawn) . Value?
Response line: 77.4% (inactive)

Prompt line: Endpoint output: growth of CCC(C)(O)CCC(C)(O)CC (stereo not drawn) . Value?
Response line: 96% (inactive)

Prompt line: Endpoint output: growth of CC1CCC(=O)N1c1ccc(N)cc1 (stereo not drawn) . Value?
Response line: 81.9% (inactive)

Prompt line: Endpoint output: growth of O=C1C=CC(=O)N1Cc1ccco1 . Value?
Response line: 91.7% (inactive)

Prompt line: Endpoint output: growth of Cc1ccc([N+](=O)[O-])cc1Br . Value?
Response line: 89.1% (inactive)

Prompt line: Endpoint output: growth of O=[N+]([O-])c1ccc(NC(c2ccccc2)c2ccc3cccnc3c2O)cc1 (stereo not drawn) . Value?
Response line: 37.2% (inactive)

Prompt line: Endpoint output: growth of Cc1cc(Cl)nc(Nc2ccccc2)n1 . Value?
Response line: 90.4% (inactive)

Prompt line: Endpoint output: growth of CS(=O)(=O)c1nsc(N)n1 . Value?
Response line: 95% (inactive)

Prompt line: Endpoint output: growth of N=c1sc2ccccc2n1CC(=O)O . Value?
Response line: 95.8% (inactive)

Prompt line: Endpoint output: growth of COc1ccc2oc3c(ccc[n+]3C)c(=O)c2c1 . Value?
Response line: 85.9% (inactive)

The measurements presented in this section are drawn from PubChem BioAssay (NCI).
